Entry source: ChEMBL document CHEMBL1158901

# Test system: Raji
# procedureDetails: TPA-induced EBV-early antigen activation in human Raji cells at 16 nmol after 48 hrs relative to TPA
# studyConditions: human gammaherpesvirus 4
measureName: EBV-EA activation (%)
Use % as the unit, but write only the number.

Some solved cases for reference:
1. COc1c(O)cc2oc3cc(O)c(CC=C(C)C)c(O)c3c(=O)c2c1CC=C(C)C	19.1
2. COc1c(O)cc2oc3cc(O)c(C/C=C(/C)CO)c(O)c3c(=O)c2c1C/C=C(\C)CCC=C(C)C	30.5
3. COc1c(O)cc2oc3cc(O)cc(O)c3c(=O)c2c1C/C=C(\C)CCC=C(C)C	39.5
4. COc1c(O)c(CC=C(C)C)c2oc3cc(O)c(CC=C(C)C)c(O)c3c(=O)c2c1CC=C(C)C	16.3
5. COc1cc2c(=O)c3c(O)c(C/C=C(\C)CCC=C(C)C)c(O)cc3oc2cc1O	40.6

get_value(item= `COc1c(O)cc2oc3cc(O)c(CC=C(C)C)c(O)c3c(=O)c2c1C/C=C(\C)CCC=C(C)C` , readout=EBV-EA activation) returns 33.6

get_value(item= `COc1cc2oc3cc(O)c(OC)c(CC=C(C)C)c3c(=O)c2c(O)c1CC=C(C)C` , readout=EBV-EA activation) returns 20.5

get_value(item= `CC1=C(/C=C/C(C)=C/C=C/C(C)=C/C=C/C=C(C)/C=C/C=C(C)/C=C/C2=C(C)CCCC2(C)C)C(C)(C)CCC1` , readout=EBV-EA activation) returns 34.3

get_value(item= `CC(C)=CCC/C(C)=C/Cc1c(O)c(O)cc2oc3cc(O)c(CC=C(C)C)c(O)c3c(=O)c12` , readout=EBV-EA activation) returns 31.9
